# experimental_system: Leukotriene D4 (LTD4) receptor (Cavia porcellus)
# Construct: guinea pigs' lung membrane fraction; from tissue; host or cells: guinea pig lung membrane fraction
# assay_info: Leukotriene D4 (LTD4) receptor antagonism ([3H]LTD4, guinea pigs' lung membrane fraction)
# Type: binding, guinea pig
# experimental_context: 10^-8 M, read-out: Inhibition rate (%) LTD4 receptor
Where a name gives a salt, the structure may show the parent alone.
Give inhibition at 0.01 µM for every item shown.
Answers are plain numbers, in %.

Example cases with answers are listed next.
Cc1ccc(C=Cc2nc3c(s2)NCCCC3)cc1: 64.4
CC(C)c1ccc(C=Cc2nc3c(s2)NCCCC3)cc1: 54.8
C(=Cc1nc2c(s1)NCCCC2)c1ccc2c(c1)OCO2 [Example 13, hydrochloride]: 61

// next entry
q: Could you please provide reported inhibition at 0.01 µM for c1ccc2cc(-c3nc4c(s3)NCCCC4)ccc2c1 ? Thanks!
a: 76

---

# experimental_system: 5-lipoxygenase (Rattus norvegicus, UniProt P12527)
# Construct: endogenous in cells; host or cells: RBL-1 (rat basophilic leukemia cells)
# Sequence (P12527 1-673): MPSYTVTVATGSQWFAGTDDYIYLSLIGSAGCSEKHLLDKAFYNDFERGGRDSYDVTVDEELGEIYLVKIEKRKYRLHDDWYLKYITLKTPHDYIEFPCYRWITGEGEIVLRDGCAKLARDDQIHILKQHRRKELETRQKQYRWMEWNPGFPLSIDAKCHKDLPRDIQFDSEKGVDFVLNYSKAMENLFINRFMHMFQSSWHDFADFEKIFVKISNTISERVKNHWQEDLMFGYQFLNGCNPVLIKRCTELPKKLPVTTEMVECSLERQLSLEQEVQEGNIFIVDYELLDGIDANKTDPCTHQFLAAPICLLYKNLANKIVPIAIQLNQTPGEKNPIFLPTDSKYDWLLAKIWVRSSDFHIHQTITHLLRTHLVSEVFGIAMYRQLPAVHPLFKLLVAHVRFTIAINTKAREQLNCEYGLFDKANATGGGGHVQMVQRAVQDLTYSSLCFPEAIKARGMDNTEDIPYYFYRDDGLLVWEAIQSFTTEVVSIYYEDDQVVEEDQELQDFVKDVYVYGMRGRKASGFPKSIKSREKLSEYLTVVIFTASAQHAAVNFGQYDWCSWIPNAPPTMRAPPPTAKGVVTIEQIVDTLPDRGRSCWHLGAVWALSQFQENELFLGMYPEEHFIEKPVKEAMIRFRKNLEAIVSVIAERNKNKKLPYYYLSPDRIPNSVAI
# assay_info: Inhibitory action on 5-lipoxygenase (5-HETE formation in RBL-1 cells)
# Format: cell-based
# experimental_context: 10^-8 M, read-out: Inhibition rate (%) of 5-HETE formation
measurement_name: inhibition at 0.01 µM (%)
Numbers only, in %.

Example cases with answers are listed next.
O=[N+]([O-])c1ccc(-c2nc3c(s2)NCCCC3)cc1: 26
Clc1ccc(C=Cc2nc3c(s2)NCCCC3)cc1Cl: 2
COc1ccc(C=Cc2nc3c(s2)NCCCC3)cc1: 14
COc1ccc(C=CC=Cc2nc3c(s2)NCCCC3)cc1: 12
O=[N+]([O-])c1ccc(C=Cc2nc3c(s2)NCCCC3)cc1: 4

// next entry
q: Could you please provide reported inhibition at 0.01 µM for C(=Cc1nc2c(s1)NCCCC2)c1ccccc1.O=C(O)C(=O)O [Example 28, oxalate] ? Thanks!
a: 9

---

# experimental_system: 5-lipoxygenase (Rattus norvegicus, UniProt P12527)
# Construct: endogenous in cells; host or cells: RBL-1 (rat basophilic leukemia cells)
# Sequence (P12527 1-673): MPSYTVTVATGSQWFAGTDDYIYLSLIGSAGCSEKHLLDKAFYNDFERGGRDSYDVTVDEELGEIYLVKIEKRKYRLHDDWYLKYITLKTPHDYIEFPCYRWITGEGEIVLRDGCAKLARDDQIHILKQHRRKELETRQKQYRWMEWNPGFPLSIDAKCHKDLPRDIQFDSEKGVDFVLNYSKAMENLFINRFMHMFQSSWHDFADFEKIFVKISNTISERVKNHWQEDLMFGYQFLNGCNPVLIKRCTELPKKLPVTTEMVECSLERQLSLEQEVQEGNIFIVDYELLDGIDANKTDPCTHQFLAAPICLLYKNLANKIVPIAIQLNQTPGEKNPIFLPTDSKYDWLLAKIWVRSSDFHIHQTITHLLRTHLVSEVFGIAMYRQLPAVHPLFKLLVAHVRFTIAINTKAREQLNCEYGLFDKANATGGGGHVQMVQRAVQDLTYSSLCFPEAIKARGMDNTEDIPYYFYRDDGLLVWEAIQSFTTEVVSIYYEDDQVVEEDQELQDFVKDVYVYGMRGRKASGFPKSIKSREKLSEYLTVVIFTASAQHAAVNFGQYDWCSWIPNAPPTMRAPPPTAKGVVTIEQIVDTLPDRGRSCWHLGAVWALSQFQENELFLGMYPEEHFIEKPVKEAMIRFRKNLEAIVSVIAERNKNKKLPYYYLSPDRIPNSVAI
# assay_info: Inhibitory action on 5-lipoxygenase (5-HETE formation in RBL-1 cells)
# Type: cell-based
# experimental_context: 10^-7 M, read-out: Inhibition rate (%) of 5-HETE formation
Give inhibition at 0.1 µM for every item shown.
Numbers only, in %.

Example cases with answers are listed next.
Clc1ccc(C=Cc2nc3c(s2)NCCCC3)cc1Cl [Example 20]: 44
O=[N+]([O-])c1ccc(-c2nc3c(s2)NCCCC3)cc1 [Example 24]: 53
COc1ccc(C=Cc2nc3c(s2)NCCCC3)cc1 [Example 2]: 56

Lab note: each molecule below needs its inhibition at 0.1 µM filled in.
1. C(=Cc1nc2c(s1)NCCCC2)c1ccccc1.O=C(O)C(=O)O [Example 28, oxalate]
2. O=[N+]([O-])c1ccc(C=Cc2nc3c(s2)NCCCC3)cc1 [Example 22]
3. COc1ccc(C=CC=Cc2nc3c(s2)NCCCC3)cc1 [Example 9]

a:
1. 56
2. 49
3. 79

---

Give inhibition at 1 µM for every item shown.
# experimental_system: Leukotriene D4 (LTD4) receptor (Cavia porcellus, UniProt Q2NNR5)
# Construct: guinea pigs' lung membrane fraction; from tissue; host or cells: guinea pig lung membrane fraction
# Sequence (Q2NNR5 whole entry): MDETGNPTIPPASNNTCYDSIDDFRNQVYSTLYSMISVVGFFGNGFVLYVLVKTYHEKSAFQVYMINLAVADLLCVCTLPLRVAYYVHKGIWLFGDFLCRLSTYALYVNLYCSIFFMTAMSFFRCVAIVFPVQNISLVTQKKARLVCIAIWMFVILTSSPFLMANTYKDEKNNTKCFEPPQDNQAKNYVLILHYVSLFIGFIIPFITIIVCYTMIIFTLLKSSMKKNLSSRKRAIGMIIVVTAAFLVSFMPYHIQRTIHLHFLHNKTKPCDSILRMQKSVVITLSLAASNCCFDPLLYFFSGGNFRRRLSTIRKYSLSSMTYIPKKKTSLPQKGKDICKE
# assay_info: Leukotriene D4 (LTD4) receptor antagonism ([3H]LTD4, guinea pigs' lung membrane fraction)
# Assay type: binding, guinea pig
# experimental_context: 10^-6 M, read-out: Inhibition rate (%) LTD4 receptor
Counter-ions that a name gives are not always drawn.
Give bare numbers, in %.

Example cases with answers are listed next.
CC(C)c1ccc(C=Cc2nc3c(s2)NCCCC3)cc1: 94.6
Cc1ccc(C=Cc2nc3c(s2)NCCCC3)cc1: 100
C(=Cc1nc2c(s1)NCCCC2)c1ccc2c(c1)OCO2 [Example 13, hydrochloride]: 100

// next entry
q: Could you please provide reported inhibition at 1 µM for c1ccc2cc(-c3nc4c(s3)NCCCC4)ccc2c1 ? Thanks!
a: 100

---

# Tested on: formation of HHT (12-hydroxyheptadeca-5,8,10-trienoic acid) in rat's platelet
# assay_info: Inhibitory action for the formation of HHT in rat's platelet
# Format: cell-based
# experimental_context: 10^-4 M; rat platelet rich plasma; read-out: Inhibition rate (%) of HHT formation
measurement_name: inhibition at 100 µM (%)
One number for each entry, in %.

Example cases with answers are listed next.
c1ccc(-c2nc3c(s2)NCCCC3)cc1: 100
c1csc(-c2nc3c(s2)NCCCC3)c1: 100
COc1ccc(C=Cc2nc3c(s2)NCCCC3)cc1: 100
Clc1ccc(C=Cc2nc3c(s2)NCCCC3)cc1Cl: 96
C(=Cc1nc2c(s1)NCCCC2)c1ccccc1: 100

// next entry
q: Could you please provide reported inhibition at 100 µM for CS(=O)(=O)N1CCCCc2nc(-c3ccncc3)sc21 ? Thanks!
a: 87

---

Give inhibition at 0.1 µM for every item shown.
# experimental_system: Leukotriene D4 (LTD4) receptor (Cavia porcellus, UniProt Q2NNR5)
# Construct: guinea pigs' lung membrane fraction; from tissue; host or cells: guinea pig lung membrane fraction
# assay_info: Leukotriene D4 (LTD4) receptor antagonism ([3H]LTD4, guinea pigs' lung membrane fraction)
# Assay type: binding, guinea pig
# experimental_context: 10^-7 M, read-out: Inhibition rate (%) LTD4 receptor
Where a name gives a salt, the structure may show the parent alone.
Answers are plain numbers, in %.

c1ccc2cc(-c3nc4c(s3)NCCCC4)ccc2c1 [Example 30]: 98.8
CC(C)c1ccc(C=Cc2nc3c(s2)NCCCC3)cc1 [Example 8]: 92.4
C(=Cc1nc2c(s1)NCCCC2)c1ccc2c(c1)OCO2 [Example 13, hydrochloride]: 92.5

// next entry
q: Could you please provide reported inhibition at 0.1 µM for Cc1ccc(C=Cc2nc3c(s2)NCCCC3)cc1 [Example 6] ? Thanks!
a: 94.3

---

Give inhibition at 1 µM for every item shown.
# experimental_system: 5-lipoxygenase (Rattus norvegicus, UniProt P12527)
# Construct: endogenous in cells; host or cells: RBL-1 (rat basophilic leukemia cells)
# assay_info: Inhibitory action on 5-lipoxygenase (5-HETE formation in RBL-1 cells)
# Format: cell-based
# experimental_context: 10^-6 M, read-out: Inhibition rate (%) of 5-HETE formation
Give bare numbers, in %.

Example cases with answers are listed next.
COc1ccc(C=CC=Cc2nc3c(s2)NCCCC3)cc1: 100
C(=Cc1nc2c(s1)NCCCC2)c1ccccc1.O=C(O)C(=O)O [Example 28, oxalate]: 95
Clc1ccc(C=Cc2nc3c(s2)NCCCC3)cc1Cl: 100

Lab note: each molecule below needs its inhibition at 1 µM filled in.
1. O=[N+]([O-])c1ccc(C=Cc2nc3c(s2)NCCCC3)cc1
2. COc1ccc(C=Cc2nc3c(s2)NCCCC3)cc1
3. O=[N+]([O-])c1ccc(-c2nc3c(s2)NCCCC3)cc1

a:
100
100
93

Value source: patent US5300639A
